Just for reference, ChEMBL document CHEMBL5523706 is where these values come from.

# ΔTm per entry
Tested on: DNA
Assay: Binding affinity to minor groove of d(5'-GCGACTAGTCGC3')2 duplex DNA (unknown origin) assessed as change in melting temperature at 2 equiv. in presence of 8 uM DNA measured at 30 to 100 degC by UV spectrophotometric analysis
Type: nucleic-acid assay
Give the quantity in °C, number only.

Chemical structure | Target under test | ΔTm [°C]
Cn1cc(NC(=O)c2cc(NC(=O)c3ccc(/C=C/c4ccccc4)cc3)cn2C)cc1C(=O)NCCCN1CCOCC1 | DNA | 21
CC(C)c1sc(NC(=O)c2cc(NC(=O)c3cc(NC(=O)c4nccn4C)cn3C)cn2C)nc1C(=O)NCCCN(C)C | DNA | 18

Task: Requested read-out: ΔTm. Entry: Cn1cc(NC(=O)c2cc(NC(=O)c3ccc(C#Cc4ccccc4)cc3)cn2C)cc1C(=O)NCCCN1CCOCC1
Result: 22

Task: Note, next up: CC(C)c1sc(NC(=O)c2cc(NC(=O)c3cc(NC(=O)c4cscn4)cn3C)cn2C)nc1C(=O)NCCCN(C)C
Result: 20

====

Here, each record is paired with measured pKa data.
Assay: Dissociation constant, pKa of the compound
Type: physicochemical
Note: the reply should be a number with no unit written.

Example results:
Chemical structure | Experimental value
Cn1cc(NC(=O)c2cc(NC(=O)c3ccc(C#Cc4ccccc4)cc3)cn2C)cc1C(=O)NCCCN1CCOCC1 | 7.01
CC(C)c1sc(NC(=O)c2cc(NC(=O)c3cc(NC(=O)c4nccn4C)cn3C)cn2C)nc1C(=O)NCCCN(C)C | 9.3

Task: Using the record for CC(C)c1sc(NC(=O)c2cc(NC(=O)c3cc(NC(=O)c4cscn4)cn3C)cn2C)nc1C(=O)NCCCN(C)C , report its pKa.
Result: 9.3

====

Test: Dissociation constant, pKa of the compound
Format: physicochemical
Measured parameter: pKa
Write no unit; give the number alone.

Chemical structure | pKa
Cn1cc(NC(=O)c2cc(NC(=O)CCSc3ccc4ccccc4c3)cn2C)cc1C(=O)NCCCN1CCOCC1 | 7.01
CN(C)CCCNC(=O)c1cc(NC(=O)c2cc(NC(=O)c3cc(NC(=O)c4nccn4C)cn3C)cn2C)cn1C | 9.3
CN(C)CCCNC(=O)c1cc(NC(=O)c2cc(NC(=O)c3ccc(/C=C/c4ccccc4)cc3)cn2C)cn1C | 9.3
Cc1ccc(CSCCC(=O)Nc2cc(C(=O)Nc3cc(C(=O)NCCCN4CCOCC4)n(C)c3)n(C)c2)cc1 | 7.01
CN(C)CCCNC(=O)c1cc(NC(=O)c2cc(NC(=O)c3cc(NC(=O)c4cscn4)cn3C)cn2C)cn1C | 9.3
Cn1cc(NC(=O)c2cc(NC(=O)c3ccc(/C=C/c4ccccc4)cc3)cn2C)cc1C(=O)NCCCN1CCOCC1 | 7.01
CN(C)CCCNC(=O)c1cc(NC(=O)c2cc(NC(=O)c3ccc(C#Cc4ccccc4)cc3)cn2C)cn1C | 9.3

Turning now to a further compound:
Task: Give its pKa value. Item: Cc1ccc(CSCCC(=O)Nc2cc(C(=O)Nc3cc(C(=O)NCCCN(C)C)n(C)c3)n(C)c2)cc1
Result: 9.3
